Answer each item with its documented aPTT (1.5x).
Test system: Human plasma (intrinsic coagulation cascade)
PROCEDURE_DETAILS: Activated Partial Thromboplastin Time (aPTT) Assay
CONDITION_DESCRIPTION: concentration that causes a 50% (1.5×) increase of clot time over vehicle
Give bare numbers, in µM.

                                   compound  measurement_kind  measurement_unit  recorded_measurement
0  O=C(O)c1ccc(NC(=O)C(CC2CC2)c2ccc(-c3cc(Cl)ccc3C(F)F)c[n+]2[O-])cc1 (single isomer, unassigned) [Example 29]       aPTT (1.5x)                µM                  2.07
1  COc1cc(C(CC2CC2)C(=O)Nc2ccc(C(=O)O)cc2)[n+]([O-])cc1-c1c(C(F)F)ccc(Cl)c1F (stereo not drawn)       aPTT (1.5x)                µM                  1.92

Note: attention shifts to another entry.
Request: Form entry - test system: Human plasma (intrinsic coagulation cascade); read-out: aPTT (1.5x); compound: O=C(O)c1ccc(NC(=O)C(CC2CC2F)c2ccc(-c3c(C(F)F)ccc(Cl)c3F)c[n+]2[O-])cc1 (single isomer, unassigned) [Example 91]
Result: 5.93

----------
Answer each item with its documented inhibition at 1 µM.
TARGET_OF_ASSAY: human Factor XIa (Homo sapiens (Human), UniProt P03951)
Sequence (P03951 388-625): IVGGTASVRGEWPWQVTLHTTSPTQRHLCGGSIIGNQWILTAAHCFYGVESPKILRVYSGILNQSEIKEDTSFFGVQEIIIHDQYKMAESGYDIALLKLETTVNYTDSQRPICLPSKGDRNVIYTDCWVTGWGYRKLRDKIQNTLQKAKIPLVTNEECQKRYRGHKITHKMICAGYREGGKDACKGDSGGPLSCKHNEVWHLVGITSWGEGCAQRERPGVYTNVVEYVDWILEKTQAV
Sequence (P03951 19-387 partner): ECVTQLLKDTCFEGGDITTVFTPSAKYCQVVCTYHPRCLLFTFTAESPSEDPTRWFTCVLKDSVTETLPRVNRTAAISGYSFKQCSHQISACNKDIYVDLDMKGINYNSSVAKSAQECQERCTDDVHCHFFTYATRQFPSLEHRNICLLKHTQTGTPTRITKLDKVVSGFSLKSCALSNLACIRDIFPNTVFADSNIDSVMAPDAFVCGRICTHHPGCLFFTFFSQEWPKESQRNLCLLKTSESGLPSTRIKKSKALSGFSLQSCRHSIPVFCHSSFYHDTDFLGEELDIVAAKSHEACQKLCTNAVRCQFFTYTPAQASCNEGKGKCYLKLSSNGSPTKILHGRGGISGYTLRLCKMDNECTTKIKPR
PROCEDURE_DETAILS: Factor XIa Assay
Type: biochemical
CONDITION_DESCRIPTION: @ 1000 nM compound; read-out: FXIa % Inh. @ 1000 nM
Be sure to follow the number with its unit.

Some solved entries appear below for comparison.
                                   compound                           target_of_assay    measurement_kind  recorded_measurement
0  CCOC(=O)c1ccc(NC(=O)C(CC2CC2)c2ccc(-c3c(C(F)F)ccc(Cl)c3F)c[n+]2[O-])cc1 (single isomer, unassigned)  human Factor XIa (Homo sapiens (Human), UniProt P03951)  inhibition at 1 µM                    0%
1  COc1ccc(Cl)c(F)c1-c1ccc(C(CC2CC2)C(=O)Nc2ccc(C(=O)O)cc2)[n+]([O-])c1 (single isomer, unassigned)  human Factor XIa (Homo sapiens (Human), UniProt P03951)  inhibition at 1 µM                   13%
2  O=C(O)c1ccc(NC(=O)C(CC2CC2)c2ccc(-c3cc(Cl)ccc3OC(F)F)c[n+]2[O-])cc1 (single isomer, unassigned)  human Factor XIa (Homo sapiens (Human), UniProt P03951)  inhibition at 1 µM                   30%
3  O=C(O)c1ccc(NC(=O)[C@H](CC2CC2)c2ccc(-c3c(OC(F)F)ccc(Cl)c3F)c[n+]2[O-])cc1 (single isomer, unassigned)  human Factor XIa (Homo sapiens (Human), UniProt P03951)  inhibition at 1 µM                   47%

Go through the list and state inhibition at 1 µM for each entry.
1. O=C(O)c1ccc(NC(=O)C(CC2CC2)c2ccc(-c3c(C(F)(F)F)ccc(Cl)c3F)c[n+]2[O-])cc1 (single isomer, unassigned)
2. CC(C)Oc1ccc(Cl)c(F)c1-c1ccc(C(CC2CC2)C(=O)Nc2ccc(C(=O)O)cc2)[n+]([O-])c1 (single isomer, unassigned)
3. COC(=O)c1ccc(NC(=O)C(CC2CCC2)c2ccc(-c3c(C(F)F)ccc(Cl)c3F)c[n+]2[O-])cc1 (single isomer, unassigned)

Result:
1: 39%; 2: 33%; 3: 13%

Lab note: each compound below needs its inhibition at 1 µM filled in.
1. Cc1cc(C(CC2CC2)C(=O)Nc2ccc(C(=O)O)cc2)[n+]([O-])cc1-c1c(OC(F)F)ccc(Cl)c1F (stereo not shown)
2. O=C(O)c1ccc(NC(=O)C(CC2CC(F)(F)C2)c2ccc(-c3c(OC(F)F)ccc(Cl)c3F)c[n+]2[O-])cc1 (racemic)
3. CC(C1CC1)C(C(=O)Nc1ccc(C(=O)O)cc1)c1ccc(-c2c(OC(F)F)ccc(Cl)c2F)c[n+]1[O-] (single isomer, unassigned)
4. CC1CCC1CC(C(=O)Nc1ccc(C(=O)O)cc1)c1ccc(-c2c(OC(F)F)ccc(Cl)c2F)c[n+]1[O-] (single isomer, unassigned)
5. O=C(O)c1ccc(NC(=O)[C@@H](CC2CC2)c2ccc(-c3c(OCC4CC4)ccc(Cl)c3F)c[n+]2[O-])cc1
6. C[C@]1(O)CC[C@@H](CC(C(=O)Nc2ccc(C(=O)O)cc2)c2ccc(-c3c(OC(F)F)ccc(Cl)c3F)c[n+]2[O-])CC1 (single isomer, unassigned)

Result:
34%
47%
48%
37%
35%
49%
